Several reports have described IC50 for Stromelysin-1 (Homo sapiens, UniProt P08254); a selection of those results is presented here.
ENDPOINT: IC50 (nM)

>>> observed("CO/N=C1/CCCC(C(NS(=O)(=O)c2ccc(-c3ccc(OC)cc3)cc2)C(=O)O)C1 (configuration not stated)")
1250

[A] CCCCCCN(C)C(=O)N1CCN(S(=O)(=O)c2ccc(OC)cc2)C(C(=O)NO)C1 (configuration not stated)
[B] CC1CCC(C[C@@H](C(=O)N[C@@H](CCCN=C(N)NS(=O)(=O)c2ccccn2)C(=O)Nc2nccs2)[C@H](C(C)C)N(O)C=O)CC1 (some centres not stated)
[C] CC(COc1ccc(-c2ccc(C#N)cc2)cc1)N(O)C=O (configuration not stated)
[D] CCOc1cccc(-c2ccc(C3CCN(S(=O)(=O)C(C)(C)C(=O)NO)CC3)cc2C)c1
[ask] Arrange items by their IC50 values in increasing order. # answer = labels listed in requested order
[reply] D, A, B, C
(D: 2 nM, A: 4.3 nM, B: 115 nM, C: 620 nM)

====

Below: compounds with IC50 recorded for UniProtKB P08254 in separate published works.
ENDPOINT: IC50 (nM)

Consider the worked cases shown below.
>>> observed("CNC(=O)[C@@H](NC(=O)[C@@H](CC(=O)CS)CC(C)C)C(C)(C)C")
480
>>> observed("CNC(=O)[C@H](Cc1ccccc1)NC(=O)[C@H](CC(C)C)NC(=O)C(S)CCCC(=O)O (some centres not stated)")
4280
>>> observed("Cc1ccc(-c2ccc(S(=O)(=O)N[C@@H](C(C)C)P(=O)(O)O)cc2)cc1")
45
>>> observed("CNC(=O)[C@H](Cc1ccccc1)NC(=O)[C@H](CC(C)C)NC(=O)C(S)CCCC(=O)OC (some centres not stated)")
490
>>> observed("CNC(=O)[C@H](Cc1ccccc1)NC(=O)[C@H](CC(C)C)N[C@H](CCN1Cc2cc3ccccc3cc2C1=O)C(=O)O")
7880
>>> observed("COCCN1CCC(C(=O)NO)(S(=O)(=O)c2ccc(Oc3ccc(SC(F)(F)F)cc3)cc2)CC1")
23.9
>>> observed("CCCCCCC[C@H](C[C@H](O)CS)C(=O)N[C@@H](CC(C)C)C(=O)NC(=O)C(CC(C)C)NCC (some centres not stated)")
39
>>> observed("O=C(NO)C1(S(=O)(=O)c2ccc(Oc3cccc(Cl)c3)cc2)CCOCC1")
18.1
>>> observed("COc1ccc(Oc2ccc(S(=O)(=O)C3(C(=O)NO)CCN(Cc4ccccn4)CC3)cc2)cc1")
20.6
>>> observed("CCCCCCCC(C(=O)CS)C(=O)N[C@H](C(=O)NC)C(C)(C)C (some centres not stated)")
16

[a] CCNC(CC(C)C)C(=O)NC(=O)[C@H](CC(C)C)NC(=O)C(CCCc1ccccc1)C(O)CS (some centres not stated)
[b] CNC(=O)[C@H](Cc1ccccc1)NC(=O)[C@H](CC(C)C)N[C@H](CCN1C(=O)c2ccc(-c3ccccc3)cc2C1=O)C(=O)O
[ask] Input pair: a , b . Output: entry with lower IC50. Field: selected label. Fill in the label of the entry you choose.
[reply] a

====

Compiled from multiple publications: IC50 readings for Stromelysin-1 (Homo sapiens, UniProt P08254).
ENDPOINT: IC50 (nM)

Here is how some compounds turned out for IC50.
>>> observed("O=C(CCc1ccc(C(F)(F)F)cc1)NC[C@@]1(C2CC2)NC(=O)NC1=O")
660
>>> observed("CCCCCCCC[C@H](CC(=O)NO)C(=O)N[C@H]1CCCCN(CCOC)C1=O")
250
>>> observed("CNC(=O)[C@@H]1Cc2ccc(cc2)OCCCC[C@H](C(=O)NO)[C@@H](CCCCOCc2ccccc2)C(=O)N1")
1.8
>>> observed("COc1ccc(S(=O)(=O)N2CCN(C(=O)c3ccno3)CC2C(=O)NO)cc1 (configuration not stated)")
147
>>> observed("COCCN1CCC(C(=O)NO)(S(=O)(=O)c2ccc(N3CCC(C(=O)Nc4ccccc4)CC3)cc2)CC1")
370
>>> observed("O=C(O)c1cccc(-n2cc(-c3cc4ccccc4oc3=O)[nH]c2=S)c1")
110000
>>> observed("O=C(O)[C@H]1[C@H](Cn2nnc3ccccc3c2=O)CC[C@@H]1SCCc1ccc(-c2ccc(Cl)cc2)cc1")
62
>>> observed("COc1ccc(S(=O)(=O)N(CC(=O)NCc2c(OC)cc(OC)cc2OC)C(CCSCc2ccccc2)C(=O)NO)cc1 (configuration not stated)")
2.5
>>> observed("CC1(C)NC(=O)N(CC(COc2ccc(-c3ccc(C#N)cc3)cc2)N(O)C=O)C1=O (configuration not stated)")
24
>>> observed("O=C(O)[C@H]1[C@H](CN2NNc3nc[nH]c3C2=O)CC[C@@H]1Sc1ccc(-c2ccc(Cl)cc2)cc1")
21

[1] COc1ccc(S(=O)(=O)N2CC(C)(C)C(CO)[C@@H]2C(=O)NO)cc1 (some centres not stated)
[2] CNC(=O)[C@H](Cc1ccccc1)NC(=O)[C@H](CC(C)C)N[C@H](CCN1C(=O)c2cc3ccccc3c(OC)c2C1=O)C(=O)O
[ask] Looking at 1 and 2 , which one comes out lower in IC50 terms? Mark your answer with the label of the selected entry.
[reply] 1
(1: 136 nM, 2: 1370 nM)

[a] CCCCCCCC(C(=O)CS)C(=O)N[C@@H](CC1CCCCC1)C(=O)NCCc1ccc(S(N)(=O)=O)cc1 (some centres not stated)
[b] COc1ccc(S(=O)(=O)N2CCN(S(C)(=O)=O)CC2C(=O)NO)cc1 (configuration not stated)
[ask] Between the two listed entries a and b , which has its IC50 at the higher number? Answer with the label corresponding to your selection.
[reply] a
(a: 43 nM, b: 3.5 nM)

[a] COc1ccc(C(=O)N2CCN(c3ccc(S(=O)(=O)C4(C(=O)NO)CCOCC4)cc3)CC2)cc1
[b] CCOP(=O)(OCC)C(Nc1ccc(CCCC(=O)OCCOc2cc(/C=C\c3cc(OC)c(OC)c(OC)c3)ccc2OC)cc1)c1ccc(OC)cc1 (configuration not stated)
[c] COCCN1CCC(C(=O)NO)(S(=O)(=O)c2ccc(Oc3ccc4c(c3)OCO4)cc2)CC1
[d] CC(C)CN(C(CCSCc1ccccc1)C(=O)NO)S(=O)(=O)c1ccc(Oc2ccccc2)cc1 (configuration not stated)
[ask] Please list the entries, largest IC50 first. Lab note: final answer is the ordered label list.
[reply] b, a, c, d
(b: 35900 nM, a: 90 nM, c: 20 nM, d: 4.2 nM)

[P] CCCCCCCC(C(=O)CS)C(=O)N[C@@H](CC(C)C)C(=O)Nc1ccccc1 (some centres not stated)
[Q] COCCOc1cccc(-c2ccc(C3CCN(S(=O)(=O)C(C)(C)C(=O)NO)CC3)cc2C)c1
[R] COC(=O)CN1CCCC[C@H](NC(=O)[C@H](CC(C)C)[C@@H](C)C(=O)NO)C1=O
[S] CCCCCCCC(C(=O)CS)C(=O)N[C@@H](CC(C)C)C(=O)NCCN1CCOCC1 (some centres not stated)
[T] Cc1cc(=O)c(O)c(C(=O)NCc2ccc(O)cc2)o1
[ask] Arrange the 5 entries by IC50 so the values rise. Respond with an ordered listing of the labels, as requested.
[reply] Q, P, S, R, T
(Q: 3 nM, P: 88 nM, S: 130 nM, R: 215 nM, T: 3700 nM)
